Hey, just so you know, these numbers are from the supplement of paper PMC8024199.

test system: Ba/F3 P210-BCR-ABL1 RUNX1-/mut (mouse); test: drug sensitivity score (DSS) (DSS score); higher = more sensitive (stronger growth inhibition); extreme values may be limits of the assay
Reported values of drug sensitivity score for individual entries
property name: drug sensitivity score

[[record]]
structure = "COc1cccc2c1C(=O)c1c(O)c3c(c(O)c1C2=O)C[C@@](O)(/C(CO)=N/NC(=O)CCCCCN1C(=O)C=CC1=O)C[C@@H]3O[C@H]1C[C@H](N)[C@H](O)[C@H](C)O1"
property_name = "drug sensitivity score"
recorded_value = 18.1

[[record]]
structure = "C[C@@H]1COCCN1c1cc(C2([S@](C)(=N)=O)CC2)nc(-c2cc[nH]c3nccc2-3)n1"
property_name = "drug sensitivity score"
recorded_value = 19.2

[[record]]
structure = "COc1cc(N2CCC(N3CCN(C)CC3)CC2)ccc1Nc1ncnc(Nc2ccccc2S(=O)(=O)C(C)C)n1"
property_name = "drug sensitivity score"
recorded_value = 3.9

[[record]]
structure = "CCCCCCCCCCCCCCCCOP(=O)([O-])OCC[N+](C)(C)C"
property_name = "drug sensitivity score"
recorded_value = 5.5

[[record]]
structure = "Cc1cnc(NC(=O)Nc2cc(Br)c(C)cc2OC[C@@H]2CNCCO2)cn1"
property_name = "drug sensitivity score"
recorded_value = 3.3

[[record]]
structure = "COc1cc2ncnc(Oc3cccc(NC(=O)Nc4cc(C(C)(C)C(F)(F)F)on4)c3)c2cc1OC"
property_name = "drug sensitivity score"
recorded_value = 13.2

[[record]]
structure = "Cc1cc2c(C(=O)NC[C@H](C)c3ccccc3)c(O)c(O)cc2c(O)c1-c1c(C)cc2c(C(=O)NC[C@H](C)c3ccccc3)c(O)c(O)cc2c1O"
property_name = "drug sensitivity score"
recorded_value = 23.5

[[record]]
structure = "CCCCC(=O)OCC(=O)[C@]1(O)Cc2c(O)c3c(c(O)c2[C@@H](O[C@H]2C[C@H](NC(=O)C(F)(F)F)[C@H](O)[C@H](C)O2)C1)C(=O)c1c(OC)cccc1C3=O"
property_name = "drug sensitivity score"
recorded_value = 21.6

[[record]]
structure = "NC(=O)c1cccc2cn(-c3ccc([C@@H]4CCCNC4)cc3)nc12"
property_name = "drug sensitivity score"
recorded_value = 8.15

[[record]]
structure = "FC(F)(F)c1ccc(/C=C/c2nc(COc3ccc(CCCCn4ccnn4)cc3)co2)cc1"
property_name = "drug sensitivity score"
recorded_value = 5.55

[[record]]
structure = "NS(=O)(=O)OC[C@@H]1C[C@@H](n2ccc3c(N[C@H]4CCc5ccccc54)ncnc32)C[C@@H]1O"
property_name = "drug sensitivity score"
recorded_value = 15.4

[[record]]
structure = "CN1CCc2c(c3ccccc3n2Cc2ccc(C(=O)NO)cc2)C1"
property_name = "drug sensitivity score"
recorded_value = 3.6

[[record]]
structure = "Cc1cn(-c2cc(NC(=O)c3ccc(C)c(Nc4nccc(-c5cnccn5)n4)c3)cc(C(F)(F)F)c2)cn1"
property_name = "drug sensitivity score"
recorded_value = 30.9

[[record]]
structure = "C[C@@H]1CN(Cc2ccc(F)cc2)[C@@H](C)CN1C(=O)c1cc2c(C(=O)C(=O)N(C)C)cn(C)c2cc1Cl"
property_name = "drug sensitivity score"
recorded_value = 0.1

[[record]]
structure = "CC1=C2C[C@H]3[C@@H](CC[C@@H]4C[C@H](NS(C)(=O)=O)CC[C@@]43C)[C@@H]2CC[C@@]2(C1)O[C@@H]1C[C@H](C)CN[C@H]1[C@H]2C"
property_name = "drug sensitivity score"
recorded_value = 2.15

[[record]]
structure = "CC[C@@H]1C(=O)OC[C@@H]1Cc1cncn1C"
property_name = "drug sensitivity score"
recorded_value = 0.5

[[record]]
structure = "CC1(C)CCC(CN2CCN(c3ccc(C(=O)NS(=O)(=O)c4ccc(NCC5CCOCC5)c([N+](=O)[O-])c4)c(Oc4cnc5[nH]ccc5c4)c3)CC2)=C(c2ccc(Cl)cc2)C1"
property_name = "drug sensitivity score"
recorded_value = 1.05

[[record]]
structure = "Cc1nc(NC(=O)N2CCC[C@H]2C(N)=O)sc1-c1ccnc(C(C)(C)C(F)(F)F)c1"
property_name = "drug sensitivity score"
recorded_value = 3

[[record]]
structure = "CCOc1ccn(-c2ccc(F)cc2)c(=O)c1C(=O)Nc1ccc(Oc2ccnc(N)c2Cl)c(F)c1"
property_name = "drug sensitivity score"
recorded_value = 0

[[record]]
structure = "Cc1noc2c1-c1ccccc1C(c1ccc(Cl)cc1)=N[C@H]2CC(N)=O"
property_name = "drug sensitivity score"
recorded_value = 19.1

[[record]]
structure = "C=CC(=O)N1CC/C(=C\\c2ccc(F)c([N+](=O)[O-])c2)C(=O)/C(=C/c2ccc(F)c([N+](=O)[O-])c2)C1"
property_name = "drug sensitivity score"
recorded_value = 23.5

[[record]]
structure = "CN(C)C(=O)c1cc2cnc(Nc3ccc(N4CCNCC4)cn3)nc2n1C1CCCC1"
property_name = "drug sensitivity score"
recorded_value = 1.85

[[record]]
structure = "CN1CCC(CNc2ccc3ncc(-c4cccc(OC(F)(F)F)c4)n3n2)CC1"
property_name = "drug sensitivity score"
recorded_value = 9.65

[[record]]
structure = "Cc1nn(C)c(COc2ccc(N3CCN(S(=O)(=O)N(C)C)CC3)cc2)c1-c1cccc2c(CCCOc3cccc4ccccc34)c(C(=O)O)n(CCN3CCOCC3)c12"
property_name = "drug sensitivity score"
recorded_value = 6.6

[[record]]
structure = "CCc1cnn2c(NCc3ccc[n+]([O-])c3)cc(N3CCCC[C@H]3CCO)nc12"
property_name = "drug sensitivity score"
recorded_value = 19.9

[[record]]
structure = "CC(C)N(CCCNC(=O)Nc1ccc(C(C)(C)C)cc1)C[C@H]1O[C@@H](n2cc(Br)c3c(N)ncnc32)[C@H](O)[C@@H]1O"
property_name = "drug sensitivity score"
recorded_value = 3.7

[[record]]
structure = "CC(C)(C)c1cnc(CSc2cnc(NC(=O)C3CCNCC3)s2)o1"
property_name = "drug sensitivity score"
recorded_value = 19.4

[[record]]
structure = "CC(C)(C)c1cc(NC(=O)Nc2ccc(-c3cn4c(n3)sc3cc(OCCN5CCOCC5)ccc34)cc2)no1"
property_name = "drug sensitivity score"
recorded_value = 2.6

[[record]]
structure = "COc1ccc(-c2ccc3ncc4c(c3c2)n(-c2ccc(N3CCNCC3)c(C(F)(F)F)c2)c(=O)n4C)cn1"
property_name = "drug sensitivity score"
recorded_value = 23.1

